ASSAY SYSTEM: GABA-A receptor; alpha-2/beta-3/gamma-2 (Homo sapiens, UniProt P18507+P28472+P47869)
Sequence (P18507 whole entry): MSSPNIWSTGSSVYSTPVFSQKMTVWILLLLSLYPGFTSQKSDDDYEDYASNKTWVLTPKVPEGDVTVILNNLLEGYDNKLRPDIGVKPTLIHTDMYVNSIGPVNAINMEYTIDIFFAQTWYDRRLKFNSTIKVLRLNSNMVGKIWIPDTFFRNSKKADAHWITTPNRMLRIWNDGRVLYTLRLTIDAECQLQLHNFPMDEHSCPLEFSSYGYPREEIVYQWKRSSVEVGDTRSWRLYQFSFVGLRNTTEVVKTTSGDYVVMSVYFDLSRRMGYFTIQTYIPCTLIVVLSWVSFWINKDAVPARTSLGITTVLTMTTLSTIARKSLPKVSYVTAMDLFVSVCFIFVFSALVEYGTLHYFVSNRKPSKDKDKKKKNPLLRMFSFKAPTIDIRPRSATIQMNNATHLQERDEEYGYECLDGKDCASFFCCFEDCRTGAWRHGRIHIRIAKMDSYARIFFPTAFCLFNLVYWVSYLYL
Sequence (P28472 whole entry): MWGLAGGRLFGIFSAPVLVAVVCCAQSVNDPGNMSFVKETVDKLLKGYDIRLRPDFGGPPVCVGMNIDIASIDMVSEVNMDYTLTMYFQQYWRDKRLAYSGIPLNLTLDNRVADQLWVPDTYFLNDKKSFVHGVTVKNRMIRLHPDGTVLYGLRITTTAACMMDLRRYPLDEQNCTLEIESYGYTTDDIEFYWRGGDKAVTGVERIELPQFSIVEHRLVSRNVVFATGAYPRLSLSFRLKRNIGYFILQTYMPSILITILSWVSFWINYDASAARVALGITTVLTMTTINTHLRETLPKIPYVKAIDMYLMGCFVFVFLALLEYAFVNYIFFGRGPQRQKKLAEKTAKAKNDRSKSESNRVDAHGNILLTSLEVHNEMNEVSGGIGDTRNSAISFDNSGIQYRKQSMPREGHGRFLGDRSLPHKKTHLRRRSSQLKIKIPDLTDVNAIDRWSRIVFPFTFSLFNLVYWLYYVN
Sequence (P47869 whole entry): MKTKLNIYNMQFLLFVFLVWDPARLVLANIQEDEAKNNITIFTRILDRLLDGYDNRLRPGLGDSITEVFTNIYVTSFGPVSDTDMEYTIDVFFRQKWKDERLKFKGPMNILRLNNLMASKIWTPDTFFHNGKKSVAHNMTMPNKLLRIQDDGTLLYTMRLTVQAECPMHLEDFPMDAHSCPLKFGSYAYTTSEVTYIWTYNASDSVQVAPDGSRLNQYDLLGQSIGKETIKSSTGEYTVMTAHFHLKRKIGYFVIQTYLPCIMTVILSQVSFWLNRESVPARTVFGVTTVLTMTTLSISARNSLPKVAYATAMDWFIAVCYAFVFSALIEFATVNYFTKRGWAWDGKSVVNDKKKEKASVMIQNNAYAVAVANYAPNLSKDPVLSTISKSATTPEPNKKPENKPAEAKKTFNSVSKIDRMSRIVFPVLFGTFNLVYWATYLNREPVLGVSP
EXPERIMENT NOTES: Displacement of [3H]Ro-151788 from human Gamma-aminobutyric acid A receptor alpha-2-beta-3-gamma-2 stably expressed in L(tk-) cells
Type: cell-based
pKi: −log10 of the molar value.
QUANTITY KIND: pKi

1. COc1ccc(-c2cc(-c3cccs3)c(=O)n(C)c2-c2ccncc2)cc1: 7.64
2. COc1ccc(-c2cc(-c3nc(C)cs3)c(=O)n(C)c2-c2cccnc2)cc1: 8.30
3. COC(=O)c1cc(-c2ccc(OC)cc2)c(-c2ccccc2)n(C)c1=O: 6.47
4. COc1ccc(-c2cc(-c3nc(C)ns3)c(=O)n(C)c2-c2ccncc2)cc1: 7.38
5. COC(=O)c1cc(-c2ccccc2)c(-c2ccc(N(C)C)cc2)n(C)c1=O: 6.33
6. COc1ccc(-c2cc(-c3ccsc3)c(=O)n(C)c2-c2ccncc2)cc1: 7.29
7. COc1ccc(-c2cc(-c3nc(C)cs3)c(=O)n(C)c2-c2ccnnc2)cc1: 8.18
8. COC(=O)c1cc(-c2ccc(OC)cc2)c(-c2cccnc2)n(C)c1=O: 7.12
9. COC(=O)c1cc(-c2ccc(OC)cc2)c(-c2ccc(N(C)C)cc2)n(C)c1=O: 6.22
10. COc1ccc(-c2cc(-c3noc(C)n3)c(=O)n(C)c2-c2ccncc2)cc1: 5.96

###

EXPERIMENT NOTES: Clp at a dose of 1.5 mg/kg
Type: ADME, organism-based
Parameters: dose 1.5 mg/kg
TEST CONDITIONS: in vivo
QUANTITY KIND: Clp (mL/min/kg)

1) COc1ccc(-c2cc(-c3nc(C)cs3)c(=O)n(C)c2-c2ccnnc2)cc1: 35

###

ASSAY SYSTEM: GABA-A receptor; alpha-2/beta-3/gamma-2 (Homo sapiens, UniProt P18507+P28472+P47869)
EXPERIMENT NOTES: Displacement of [3H]Ro-151788 from human GABA-A receptor alpha-2-beta-3-gamma-2 subunits expressed in L(tk-) cells (<50% inhibition at 2 uM)
Format: cell-based
QUANTITY KIND: Ki

1) COc1ccc(-c2cc(-c3nc(C)no3)c(=O)n(C)c2-c2ccncc2)cc1: > 667 nM

###

ASSAY SYSTEM: GABA-A receptor; alpha-5/beta-3/gamma-2 (Homo sapiens, UniProt P18507+P28472+P31644)
Sequence (P31644 whole entry, one chain of several): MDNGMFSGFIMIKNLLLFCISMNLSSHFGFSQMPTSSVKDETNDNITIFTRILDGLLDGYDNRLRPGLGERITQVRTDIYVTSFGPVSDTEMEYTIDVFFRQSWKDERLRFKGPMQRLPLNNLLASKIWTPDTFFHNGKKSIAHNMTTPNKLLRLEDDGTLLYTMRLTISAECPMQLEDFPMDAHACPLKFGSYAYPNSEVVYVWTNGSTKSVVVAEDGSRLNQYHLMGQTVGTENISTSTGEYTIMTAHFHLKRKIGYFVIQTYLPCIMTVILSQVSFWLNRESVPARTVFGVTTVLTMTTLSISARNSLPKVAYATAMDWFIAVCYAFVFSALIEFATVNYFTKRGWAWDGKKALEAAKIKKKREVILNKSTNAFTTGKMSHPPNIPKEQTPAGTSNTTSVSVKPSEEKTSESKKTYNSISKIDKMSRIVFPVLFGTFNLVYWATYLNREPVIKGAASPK
EXPERIMENT NOTES: Inhibition of [3H]Ro-151788 binding to human GABA A receptor (alpha-5-beta-3-gamma-2) stably expressed in L(tk-) cells.
Assay type: cell-based
pKi: −log10 of the molar value.
QUANTITY KIND: pKi

1) COC(=O)c1cc(-c2ccccc2)c(-c2ccc(N(C)C)cc2)n(C)c1=O: < 6.18
2) COc1ccc(-c2cc(C#N)c(OC)nc2-c2ccc(N(C)C)cc2)cc1: < 6.18
3) COC(=O)c1cc(-c2ccc(OC)cc2)c(-c2cccnc2)n(C)c1=O: < 6.18
4) COc1ccc(-c2cc(-c3nc(C)cs3)c(=O)n(C)c2-c2ccnnc2)cc1: 6.48
5) COc1ccc(-c2cc(-c3ncc(C)s3)c(=O)n(C)c2-c2ccncc2)cc1: < 6.00
6) COc1ccc(-c2cc(-c3ccccc3)c(=O)n(C)c2-c2ccncc2)cc1: < 6.00
7) COc1ccc(-c2cc(-c3nc(C)cs3)c(=O)n(C)c2-c2cccnc2)cc1: < 6.18
8) COC(=O)c1cc(-c2ccc(OC)cc2)c(-c2ccccc2)n(C)c1=O: 6.41
9) COc1ccc(-c2cc(-c3nc(C4CC4)cs3)c(=O)n(C)c2-c2ccncc2)cc1: < 6.00
10) COc1ccc(-c2cc(-c3nc(C)ns3)c(=O)n(C)c2-c2ccncc2)cc1: < 6.18
11) COC(=O)c1cc(-c2ccc(OC)cc2)c(-c2ccncc2)n(C)c1=O: 6.41
12) COc1ccc(-c2cc(-c3cccs3)c(=O)n(C)c2-c2ccncc2)cc1: 6.46
13) COC(=O)c1cc(-c2ccc(OC)cc2)c(-c2ccc(N(C)C)cc2)n(C)c1=O: < 6.18
14) COC(=O)c1cc(-c2ccc(OC)cc2)c(-c2ccccn2)n(C)c1=O: < 6.18
15) Cc1csc(-c2cc(-c3ccc(F)cc3)c(-c3ccncc3)n(C)c2=O)n1: 6.42
16) COc1ccc(-c2cc(-c3ccsc3)c(=O)n(C)c2-c2ccncc2)cc1: 6.35
17) COc1ccc(-c2cc(C#N)c(O)nc2-c2ccc(N(C)C)cc2)cc1: < 6.18
